Known MIC of a selection of compounds
System: Escherichia coli
Assay: Antibacterial activity against multidrug resistant ESBL producing Escherichia coli isolate after 16 to 20 hrs by broth microdilution assay
Type: functional
Square brackets hold non-standard residues; d marks the D form. Peptide text beside a SMILES is read from it. Nphe = O=C(O)CNCc1ccccc1; Nlys = NCCCCNCC(=O)O

Sure, the documented MIC for CC(=O)N(CCCCN)CCC(=O)N[C@@H](Cc1ccccc1)C(=O)N(CCCCN)CCC(=O)N[C@@H](Cc1ccccc1)C(=O)N(CCCCN)CCC(=O)N[C@@H](Cc1ccccc1)C(=O)N(CCCCN)CCC(=O)N[C@@H](Cc1ccccc1)C(=O)N(CCCCN)CCC(=O)N[C@@H](Cc1ccccc1)C(=O)N(CCCCN)CCC(=O)N[C@@H](Cc1ccccc1)C(=O)N(CCCCN)CCC(=O)N[C@@H](Cc1ccccc1)C(=O)N(CCCCN)CCC(=O)N[C@@H](Cc1ccccc1)C(N)=O is 16 µM

Sure, the documented MIC for CC(=O)N(CCCCN)CC(=O)N(CC(=O)N(CCCCN)CC(=O)N(CC(=O)N(CCCCN)CC(=O)N(CC(=O)N(CCCCN)CC(=O)N(CC(=O)N(CCCCN)CC(=O)N(CC(=O)N(CCCCN)CC(=O)N(CC(=O)N(CCCCN)CC(=O)N(CC(=O)N(CCCCN)CC(=O)N(CC(N)=O)Cc1ccccc1)Cc1ccccc1)Cc1ccccc1)Cc1ccccc1)Cc1ccccc1)Cc1ccccc1)Cc1ccccc1)Cc1ccccc1 (Ac-[Nlys][Nphe][Nlys][Nphe][Nlys][Nphe][Nlys][Nphe][Nlys][Nphe][Nlys][Nphe][Nlys][Nphe][Nlys][Nphe]-NH2) is 64 µM

Sure, the documented MIC for CC(=O)N[C@H](CCCCN)C(=O)N[C@H](Cc1ccccc1)C(=O)N[C@H](CCCCN)C(=O)N[C@H](Cc1ccccc1)C(=O)N[C@H](CCCCN)C(=O)N[C@H](Cc1ccccc1)C(=O)N[C@H](CCCCN)C(=O)N[C@H](Cc1ccccc1)C(=O)N[C@H](CCCCN)C(=O)N[C@H](Cc1ccccc1)C(=O)N[C@H](CCCCN)C(=O)N[C@H](Cc1ccccc1)C(=O)N[C@H](CCCCN)C(=O)N[C@H](Cc1ccccc1)C(=O)N[C@H](CCCCN)C(=O)N[C@H](Cc1ccccc1)C(N)=O is 256 µM

Sure, the documented MIC for CC(=O)N[C@@H](CCCCN)C(=O)N(CC(=O)N[C@@H](CCCCN)C(=O)N(CC(=O)N[C@@H](CCCCN)C(=O)N(CC(=O)N[C@@H](CCCCN)C(=O)N(CC(=O)N[C@@H](CCCCN)C(=O)N(CC(=O)N[C@@H](CCCCN)C(=O)N(CC(=O)N[C@@H](CCCCN)C(=O)N(CC(=O)N[C@@H](CCCCN)C(=O)N(CC(N)=O)Cc1ccccc1)Cc1ccccc1)Cc1ccccc1)Cc1ccccc1)Cc1ccccc1)Cc1ccccc1)Cc1ccccc1)Cc1ccccc1 (Ac-K[Nphe]K[Nphe]K[Nphe]K[Nphe]K[Nphe]K[Nphe]K[Nphe]K[Nphe]-NH2) is 8 µM

Sure, the documented MIC for CC(=O)N(CCCCN)CCC(=O)N(CCC(=O)N(CCCCN)CCC(=O)N(CCC(=O)N(CCCCN)CCC(=O)N(CCC(=O)N(CCCCN)CCC(=O)N(CCC(=O)N(CCCCN)CCC(=O)N(CCC(=O)N(CCCCN)CCC(=O)N(CCC(=O)N(CCCCN)CCC(=O)N(CCC(=O)N(CCCCN)CCC(=O)N(CCC(N)=O)Cc1ccccc1)Cc1ccccc1)Cc1ccccc1)Cc1ccccc1)Cc1ccccc1)Cc1ccccc1)Cc1ccccc1)Cc1ccccc1 is 8 µM

Sure, the documented MIC for CC(=O)N[C@@H](CCCCN)CC(=O)N[C@H](CC(=O)N[C@@H](CCCCN)CC(=O)N[C@H](CC(=O)N[C@@H](CCCCN)CC(=O)N[C@H](CC(=O)N[C@@H](CCCCN)CC(=O)N[C@H](CC(=O)N[C@@H](CCCCN)CC(=O)N[C@H](CC(=O)N[C@@H](CCCCN)CC(=O)N[C@H](CC(=O)N[C@@H](CCCCN)CC(=O)N[C@H](CC(=O)N[C@@H](CCCCN)CC(=O)N[C@H](CC(N)=O)Cc1ccccc1)Cc1ccccc1)Cc1ccccc1)Cc1ccccc1)Cc1ccccc1)Cc1ccccc1)Cc1ccccc1)Cc1ccccc1 is 32 µM

Sure, the documented MIC for CC(=O)N[C@@H](CCCCN)CC(=O)N[C@@H](Cc1ccccc1)C(=O)N[C@@H](CCCCN)CC(=O)N[C@@H](Cc1ccccc1)C(=O)N[C@@H](CCCCN)CC(=O)N[C@@H](Cc1ccccc1)C(=O)N[C@@H](CCCCN)CC(=O)N[C@@H](Cc1ccccc1)C(=O)N[C@@H](CCCCN)CC(=O)N[C@@H](Cc1ccccc1)C(=O)N[C@@H](CCCCN)CC(=O)N[C@@H](Cc1ccccc1)C(=O)N[C@@H](CCCCN)CC(=O)N[C@@H](Cc1ccccc1)C(=O)N[C@@H](CCCCN)CC(=O)N[C@@H](Cc1ccccc1)C(N)=O is 8 µM

Sure, the documented MIC for CO/N=C(\C(=O)N[C@@H]1C(=O)N2C(C(=O)O)=C(COC(C)=O)CS[C@H]12)c1csc(N)n1 is > 134 µM

Sure, the documented MIC for CC(=O)N[C@@H](CCCCN)C(=O)N[C@H](CC(=O)N[C@@H](CCCCN)C(=O)N[C@H](CC(=O)N[C@@H](CCCCN)C(=O)N[C@H](CC(=O)N[C@@H](CCCCN)C(=O)N[C@H](CC(=O)N[C@@H](CCCCN)C(=O)N[C@H](CC(=O)N[C@@H](CCCCN)C(=O)N[C@H](CC(=O)N[C@@H](CCCCN)C(=O)N[C@H](CC(=O)N[C@@H](CCCCN)C(=O)N[C@H](CC(N)=O)Cc1ccccc1)Cc1ccccc1)Cc1ccccc1)Cc1ccccc1)Cc1ccccc1)Cc1ccccc1)Cc1ccccc1)Cc1ccccc1 is 32 µM
